- assay: Binding affinity to dopamine receptor (unknown origin) assessed as inhibition constant
- Design: species or system Homo sapiens
reportedProperty: pKi
Please keep in mind that pKi is minus log10 of the molar concentration; only the number is needed.

Recorded result, c1ccc2sc(C3(N4CCCCC4)CCCCC3)cc2c1 , pKi: 8.31

---

- assay: Inhibition of dopamine receptor (unknown origin)
- Set-up: species or system Homo sapiens
reportedProperty: pIC50
Please keep in mind that pIC50 is minus log10 of the molar concentration; only the number is needed.

Recorded result, c1ccc2sc(C3(N4CCCCC4)CCCCC3)cc2c1 , pIC50: 8.02

---

- assay: Binding affinity to Cl channel GABA gated receptor (unknown origin) assessed as inhibition constant
- Parameters: species or system Homo sapiens
reportedProperty: Ki (nM)
Record the value in nM, omitting the unit from your answer.

Recorded result, C=C(C)[C@@H]1[C@H]2OC(=O)[C@@H]1[C@]1(O)C[C@H]3O[C@]34C(=O)O[C@H]2[C@]14C [PICROTOXININ] , Ki: 260

---

- assayedTarget: 5-hydroxytryptamine receptor 2B (Homo sapiens, UniProt P41595)
- Sequence (P41595 whole entry): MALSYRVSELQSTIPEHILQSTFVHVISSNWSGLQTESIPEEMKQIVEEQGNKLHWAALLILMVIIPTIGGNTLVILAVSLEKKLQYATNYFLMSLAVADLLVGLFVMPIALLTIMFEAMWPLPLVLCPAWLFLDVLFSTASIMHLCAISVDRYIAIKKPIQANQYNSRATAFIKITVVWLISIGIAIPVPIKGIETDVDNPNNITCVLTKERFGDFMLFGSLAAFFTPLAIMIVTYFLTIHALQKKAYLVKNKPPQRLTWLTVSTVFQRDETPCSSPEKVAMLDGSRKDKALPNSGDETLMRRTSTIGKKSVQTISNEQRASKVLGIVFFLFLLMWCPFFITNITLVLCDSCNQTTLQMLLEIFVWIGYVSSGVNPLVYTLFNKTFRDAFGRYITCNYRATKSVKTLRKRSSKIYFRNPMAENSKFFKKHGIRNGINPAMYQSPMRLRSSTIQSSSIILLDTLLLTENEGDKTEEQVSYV
- assay: Binding affinity to 5HT2B receptor (unknown origin) assessed as inhibition constant
reportedProperty: Ki
Please answer using a numeric value trailed by its unit.

Recorded result, COc1cc(CC(C)N)c(OC)cc1I (racemic) , Ki: 0.75 nM

---

- assayedTarget: KV channel (voltage-gated potassium channel family) (Homo sapiens, UniProt O43525+O43526+O95259+P16389+P17658+P22001+P22459+P22460+P48547+P51787+P56696+Q03721+Q09470+Q12809+Q14003+Q14721+Q16322+Q6PIU1+Q8NCM2+Q8TAE7+Q8TDN1+Q8TDN2+Q92953+Q96KK3+Q96L42+Q96PR1+Q96RP8+Q9BQ31+Q9H252+Q9H3M0+Q9NR82+Q9NS40+Q9NSA2+Q9NZV8+Q9UIX4+Q9UJ96+Q9UK17+Q9ULD8+Q9ULS6+Q9UQ05)
- assay: Inhibition of KV channel (unknown origin)
- Format: protein assay
Bridges are numbered along the chain shown (N, C = ends). [ ]: non-standard residue; d: D form. pGlu = O=C1CC[C@@H](C(=O)O)N1
reportedProperty: pIC50
Please keep in mind that pIC50 is minus log10 of the molar concentration; only the number is needed.

Recorded result, [pGlu]PRRKLCILHRNPGRCYDKIPAFYYNQKKKQCERFDWSGCGGNSNRFKTIEECRRTCIG-OH (disulfide 7-57, 16-40, 32-53) , pIC50: 9.74

---

- assayedTarget: 5-hydroxytryptamine receptor 2B (Homo sapiens)
- assay: Inhibition of 5HT2B receptor (unknown origin)
reportedProperty: IC50 (nM)
Record the value in nM, omitting the unit from your answer.

Case COc1cc(CC(C)N)c(OC)cc1I (racemic) , 5-hydroxytryptamine receptor 2B (Homo sapiens), IC50 recorded as 5.8

---

- assay: Inhibition of Cl channel GABA gated receptor (unknown origin)
- Parameters: species or system Homo sapiens
reportedProperty: IC50 (nM)
Record the value in nM, omitting the unit from your answer.

Recorded result, C=C(C)[C@@H]1[C@H]2OC(=O)[C@@H]1[C@]1(O)C[C@H]3O[C@]34C(=O)O[C@H]2[C@]14C , IC50: 310

---

- assay: Binding affinity to Adenosine 1 transporter (unknown origin) assessed as inhibition constant
- Parameters: species or system Homo sapiens
reportedProperty: pKi
Please keep in mind that pKi is minus log10 of the molar concentration; only the number is needed.

Recorded result, CCCn1c(=O)c2[nH]c(C3CCCC3)nc2n(CCC)c1=O , pKi: 8.89
